system-under-test: receptor tyrosine kinase c-Met (Homo sapiens, UniProt P08581)
Sequence (P08581 25-1390): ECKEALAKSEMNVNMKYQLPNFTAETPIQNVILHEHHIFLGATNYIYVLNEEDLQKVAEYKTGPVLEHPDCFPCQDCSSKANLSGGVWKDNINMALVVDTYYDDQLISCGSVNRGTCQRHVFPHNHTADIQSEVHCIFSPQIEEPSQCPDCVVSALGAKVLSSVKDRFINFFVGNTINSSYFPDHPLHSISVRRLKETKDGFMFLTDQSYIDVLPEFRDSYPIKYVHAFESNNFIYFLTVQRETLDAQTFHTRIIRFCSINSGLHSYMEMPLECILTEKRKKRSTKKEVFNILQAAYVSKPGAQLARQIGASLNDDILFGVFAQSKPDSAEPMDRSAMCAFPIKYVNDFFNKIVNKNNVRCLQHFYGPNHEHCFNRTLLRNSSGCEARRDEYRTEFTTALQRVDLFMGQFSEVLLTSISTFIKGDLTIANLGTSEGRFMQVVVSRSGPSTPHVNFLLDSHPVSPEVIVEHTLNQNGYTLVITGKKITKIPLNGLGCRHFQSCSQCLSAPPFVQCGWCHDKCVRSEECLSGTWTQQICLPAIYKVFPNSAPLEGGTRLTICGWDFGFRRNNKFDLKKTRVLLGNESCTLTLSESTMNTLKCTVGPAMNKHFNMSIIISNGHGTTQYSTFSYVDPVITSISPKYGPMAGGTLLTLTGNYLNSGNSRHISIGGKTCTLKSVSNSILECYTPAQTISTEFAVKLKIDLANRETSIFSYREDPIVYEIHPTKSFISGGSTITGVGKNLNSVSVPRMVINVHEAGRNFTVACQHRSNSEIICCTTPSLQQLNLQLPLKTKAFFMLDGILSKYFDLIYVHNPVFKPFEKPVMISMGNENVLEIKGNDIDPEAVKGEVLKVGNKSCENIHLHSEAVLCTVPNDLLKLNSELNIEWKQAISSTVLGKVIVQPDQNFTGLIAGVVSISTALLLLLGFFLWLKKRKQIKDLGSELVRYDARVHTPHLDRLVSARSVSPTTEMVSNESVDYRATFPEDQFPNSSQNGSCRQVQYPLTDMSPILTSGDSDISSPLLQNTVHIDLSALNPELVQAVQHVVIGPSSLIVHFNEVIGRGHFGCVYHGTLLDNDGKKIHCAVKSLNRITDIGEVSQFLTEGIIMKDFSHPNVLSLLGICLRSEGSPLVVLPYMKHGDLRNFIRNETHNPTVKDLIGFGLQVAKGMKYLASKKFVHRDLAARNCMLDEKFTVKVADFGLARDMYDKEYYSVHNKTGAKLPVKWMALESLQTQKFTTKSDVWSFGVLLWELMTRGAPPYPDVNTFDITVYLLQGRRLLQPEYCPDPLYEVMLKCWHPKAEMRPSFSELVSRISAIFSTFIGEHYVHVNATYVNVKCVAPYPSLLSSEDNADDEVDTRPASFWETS
test-protocol: In vitro c-Met kinase inhibitory activity
Assay type: biochemical
test-parameters: 1 nM; two values per compound; 0.001 µM
Each entry falls in a class defined on c-Met Inhibitory rate (%); the bands are class A = under 30%, class B = from 30% up to 50%, class C = 50% and over

Q: # bin lookup: classify `COCCOc1cc2ncnc(Oc3ccc(NC(=O)c4c5n(n(-c6ccccc6F)c4=O)CCCC5)cc3C(F)(F)F)c2cc1OCCOC` by its c-Met Inhibitory rate (%)
A: class A

Q: Okay, and `COCCOc1cc2ncnc(Oc3ccc(NC(=O)c4c5n(n(-c6ccccc6)c4=O)CCCC5)c(F)c3)c2cc1OCCOC` ?
A: class C

Q: Okay, and `O=C(Nc1ccc(Oc2ncnc3cc4c(cc23)OCCOCCOCCO4)c(Cl)c1)c1c2n(n(-c3ccc(F)cc3)c1=O)CCCC2` ?
A: class B

Q: Okay, and `COCCOc1cc2ncnc(Oc3ccc(NC(=O)c4c5n(n(-c6cc(F)ccc6F)c4=O)CCCC5)c(F)c3)c2cc1OCCOC` ?
A: class C

Q: Okay, and `COCCOc1cc2ncnc(Oc3ccc(NC(=O)c4c5n(n(-c6ccc(F)cc6)c4=O)CCCC5)cc3C(F)(F)F)c2cc1OCCOC` ?
A: class A

Q: Okay, and `O=C(Nc1ccc(Oc2ncnc3[nH]cc(-c4ccccc4)c23)c(F)c1)c1c2n(n(-c3ccccc3)c1=O)CCCC2` ?
A: class B

Q: Okay, and `COc1cc2ncnc(Oc3ccc(NC(=O)c4c5n(n(-c6ccc(F)cc6)c4=O)CCCC5)cc3C(F)(F)F)c2cc1OC` ?
A: class A

Q: Okay, and `COc1cc2ncnc(Oc3ccc(NC(=O)c4c5n(n(-c6cc(F)ccc6F)c4=O)CCCC5)cc3F)c2cc1OC` ?
A: class C

Q: Okay, and `COCCOc1cc2ncnc(Oc3ccc(NC(=O)c4c5n(n(-c6cc(F)ccc6F)c4=O)CCCC5)cc3F)c2cc1OCCOC` ?
A: class C

Q: Okay, and `O=C(Nc1ccc(Oc2ncnc3cc4c(cc23)OCCOCCOCCO4)c(F)c1)c1c2n(n(-c3cc(F)ccc3F)c1=O)CCCC2` ?
A: class B

Q: Okay, and `COCCOc1cc2ncnc(Oc3ccc(NC(=O)c4c5n(n(-c6ccccc6)c4=O)CCCC5)cc3C(F)(F)F)c2cc1OCCOC` ?
A: class B

---

system-under-test: receptor tyrosine kinase c-Met (Homo sapiens)
test-protocol: In vitro c-Met kinase inhibitory activity
Type: biochemical
test-parameters: 10 nM; two values per compound; read-out: c-Met Inhibitory rate (%)
Decide by inhibition at 0.01 µM: equal to or exceeding 70% means true, less means false.

Q: Item O=C(Nc1ccc(Oc2ncnc3cc4c(cc23)OCCOCCOCCO4)c(F)c1)c1c2n(n(-c3ccccc3)c1=O)CCCC2 [DC621061] with inhibition at 0.01 µM of 70% or above?
A: false

Q: Okay, and COCCOc1cc2ncnc(Oc3ccc(NC(=O)c4c5n(n(-c6ccccc6F)c4=O)CCCC5)c(F)c3)c2cc1OCCOC [DC621057] ?
A: false

Q: Okay, and COCCOc1cc2ncnc(Oc3ccc(NC(=O)c4c5n(n(-c6ccc(F)cc6)c4=O)CCCC5)c(F)c3)c2cc1OCCOC [DC621060] ?
A: false

Q: Okay, and COCCOc1cc2ncnc(Oc3ccc(NC(=O)c4c5n(n(-c6ccccc6)c4=O)CCCC5)c(F)c3)c2cc1OCCOC [DC621051] ?
A: false

Q: Okay, and COCCOc1cc2ncnc(Oc3ccc(NC(=O)c4c5n(n(-c6ccccc6)c4=O)CCCC5)cc3C(F)(F)F)c2cc1OCCOC [DC621072] ?
A: false

Q: Okay, and COc1cc2nccc(Oc3ccc(NC(=O)c4c5n(n(-c6ccccc6)c4=O)CCCC5)cc3F)c2cc1OC [DC621001] ?
A: true

Q: Okay, and COc1cc2ncnc(Oc3ccc(NC(=O)c4c5n(n(-c6ccc(F)cc6)c4=O)CCCC5)cc3C(F)(F)F)c2cc1OC [DC621101] ?
A: true

Q: Okay, and COc1cc2ncnc(Oc3ccc(NC(=O)c4c5n(n(-c6cc(F)ccc6F)c4=O)CCCC5)c(F)c3)c2cc1OC [DC621053] ?
A: false

Q: Okay, and COc1cc2ncnc(Oc3ccc(NC(=O)c4c5n(n(-c6ccccc6F)c4=O)CCCC5)cc3F)c2cc1OC [DC621034] ?
A: false

# credit: patent US12497394B2
